target: human B1R receptor (hB1R) (Homo sapiens); construct: host or cells: CHO K1 cells; experiment: FLIPR Ca2+ assay on human bradykinin 1 receptor (CHO K1 hB1R cells); format: cell-based; conditions: test substance 10 μM; CHO K1 cells with human B1R gene; agonist Lys-Des-Arg9-bradykinin 0.5 nM; compared to maximum achievable inhibition
Sequence (P46663 whole entry): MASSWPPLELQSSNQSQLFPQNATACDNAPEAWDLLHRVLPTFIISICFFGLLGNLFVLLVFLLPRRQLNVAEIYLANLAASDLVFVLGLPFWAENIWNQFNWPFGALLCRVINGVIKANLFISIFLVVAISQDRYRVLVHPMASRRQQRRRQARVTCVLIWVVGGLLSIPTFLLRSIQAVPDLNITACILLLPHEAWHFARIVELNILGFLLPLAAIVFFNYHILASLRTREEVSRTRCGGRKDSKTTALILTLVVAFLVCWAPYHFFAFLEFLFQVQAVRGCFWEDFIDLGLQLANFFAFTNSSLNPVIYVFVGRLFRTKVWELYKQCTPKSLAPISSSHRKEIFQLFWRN
assay-endpoint: inhibition at 10 µM (%)
Form entry: value (%) — number only.

Look over these answered cases.
* COc1cc(C)c(S(=O)(=O)N(C)CCOCC(=O)N2CCn3cccc3C2c2cccnc2)c(C)c1C (stereo not shown) | 98
* COc1cc(C)c(S(=O)(=O)N(CCOCC(=O)N2CCn3cccc3C2C(C)C)Cc2ccccc2)c(C)c1C (stereo not shown) | 58
* COc1c(C)cc(S(=O)(=O)N(C)CCOCC(=O)N2CCn3cccc3C2C)c(C)c1C (stereo not shown) | 37
* Cc1cc(C)c(S(=O)(=O)N(C)CCOCC(=O)N2CCn3cccc3C2C(C)(C)C)c(C)c1 (stereo not shown) | 101
* COc1cc(C)c(S(=O)(=O)N(C)CCOCC(=O)N2CCn3c(Cc4ccncc4)ccc3C2)c(C)c1 | 100

**Q:** Assign inhibition at 10 µM to the following record: COc1c(C)cc(S(=O)(=O)N(C)CCOCC(=O)N2CCn3cccc3C2c2ccccc2)c(C)c1C (stereo not shown)
**A:** 78

**Q:** Return inhibition at 10 µM (reported value) for this compound: COc1c(C)cc(S(=O)(=O)N(C)CCOCC(=O)N2CCn3cccc3C2c2cccc(F)c2)c(C)c1C (stereo not shown)
**A:** 81
